B1: SPSB4 (parent)
chain: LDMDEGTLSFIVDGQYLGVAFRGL

variants of: B1; test: protein stability index of a GFP-peptide fusion (GPS, HEK-293T) (PSI 1-6); higher = more stable; conditions: c terminus: a fixed tail appended;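 note: lentivirally expressed fusions sorted by FACS into six bins by GFP to DsRed ratio, PSI derived from sequencing read proportions per bin multiplied by bin number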
# cutoff 2 applies to protein stability index; >= gives label 1, < gives label 0

1. Y16M ... label 1
2. Y16T ... label 1
3. V12R ... label 0
4. L8S ... label 0
5. I11N ... label 1

Query string: Evaluate L17P : protein stability index at minimum 2?
Result string: label 1

Query string: Try this variant next: L24K
Result string: label 0

Query string: Continue with S9T
Result string: label 1

Query string: Ok, now A20Y
Result string: label 1

Query string: Please do the same for I11Y as well.
Result string: label 1

Query string: Field entry: A20I
Result string: label 1

Query string: Entry to check: L17Q
Result string: label 1

Query string: Same for Y16A
Result string: label 0

Query string: How about G18I ?
Result string: label 1

Query string: Repeat with G18W
Result string: label 0

Query string: Same lookup for G6H , please.
Result string: label 1

Query string: Then L1D ?
Result string: label 0

Query string: // next record L8K
Result string: label 0

Query string: Now this one: D13K
Result string: label 1

Query string: Continue with Y16N
Result string: label 0
